Measured growth values are reported for all entries that follow.
system: NCI-H322M lung; assay: NCI-60 one-dose screen, 48 h (100 = growth as untreated, 0 = no growth, -100 = all killed); conditions: 10 µM unless noted
The panel holds about 83,000 compounds, 20% with a hit somewhere; the sample as a whole holds those more often. Activity calls are given as the source filed them. How the source made its calls: active means growth percent below 10; inactive means the rest.

>  <SMILES_STR>
O=S(=O)(NCCCNc1nccc(-c2[nH]c(-c3ccccc3)nc2-c2ccc(F)c(O)c2)n1)c1cccc(F)c1

>  <growth>
103% (inactive)

$$$$
>  <SMILES_STR>
O=C1Nc2ccccc2/C1=N\c1nnc(-c2ccccc2)o1

>  <growth>
86.8% (inactive)

$$$$
>  <SMILES_STR>
NC(=O)c1ncn2c(=O)n(CCF)nnc12

>  <growth>
78% (inactive)

$$$$
>  <SMILES_STR>
COc1ccc(/C=N/NC(=O)CSc2nc(-c3cnccn3)cc(-c3cccs3)c2C#N)cc1

>  <growth>
84.4% (inactive)

$$$$
>  <SMILES_STR>
CC(=O)c1cc(C(=O)N2c3ccccc3Sc3ccccc32)n2c1ccc1ccccc12

>  <growth>
89.9% (inactive)

$$$$
>  <SMILES_STR>
Cn1cc(-c2cc3ncnc(Nc4ccc(CC(=O)Nc5nc(C(C)(C)C)cs5)cc4)c3s2)cn1

>  <growth>
43.8% (inactive)

$$$$
>  <SMILES_STR>
CN1CCC[C@]2(C)[C@H]3CC[C@@H]4[C@@H]5[C@H]6OC[C@@]5(CCC6(C)C)CC[C@@]4(C)[C@]3(C)CC[C@H]2C1(C)C

>  <growth>
87.8% (inactive)

$$$$
>  <SMILES_STR>
CN1CCN(c2ccc(Nc3nc(NCCNS(=O)(=O)c4ccc5ccccc5c4)c4sccc4n3)cc2)CC1

>  <growth>
83.7% (inactive)

$$$$
>  <SMILES_STR>
CCN(CC)S(=O)(=O)c1ccc(-c2nc(C(Cl)Cl)nc3cc(-c4ccc(F)cc4)nn23)cc1

>  <growth>
41.4% (inactive)

$$$$

---

test system: SK-MEL-2 melanoma; assay: NCI-60 one-dose screen, 48 h; details: 10 µM unless noted
The panel holds about 83,000 compounds, 20% with a hit somewhere; the sample as a whole holds those more often. Active and inactive are the calls of the source. How the source made its calls: active means growth percent below 10; inactive means the rest.
Labels: true = active, false = inactive

>  <SMILES_STR>
C#Cc1cc(OC)c(C(=O)Nc2ccc(F)cc2C(=O)Nc2cccc(S(=O)(=O)C(F)(F)F)c2)cn1

>  <LABEL_CLASS>
false

$$$$
>  <SMILES_STR>
O=C(CSc1cc[n+](CCCCO)c2ccccc12)n1ccc2ccccc21

>  <LABEL_CLASS>
false

$$$$
>  <SMILES_STR>
Cn1cc(-c2cc3ncnc(Nc4ccc(CC(=O)Nc5nc(C(C)(C)C)cs5)cc4)c3s2)cn1

>  <LABEL_CLASS>
false

$$$$
>  <SMILES_STR>
CC(C)(C)c1cc(NC(=O)Nc2ccc(-c3cn4c5c(sc4n3)CCc3c[nH]cc3-5)cc2)no1

>  <LABEL_CLASS>
true

$$$$
>  <SMILES_STR>
Cc1[nH]c(C(=O)Nc2ccccc2OCc2cccc(C(=O)NCCN)c2)cc1Cl

>  <LABEL_CLASS>
false

$$$$
>  <SMILES_STR>
CC(=O)c1c([Si](C)(C)C)c2cc(C#N)ccn2c1C(=O)c1ccc(Br)cc1

>  <LABEL_CLASS>
false

$$$$
>  <SMILES_STR>
Cn1cc(-c2nc(N)nnc2-c2c[nH]c3ccc(Br)cc23)c2cc(F)ccc21

>  <LABEL_CLASS>
false

$$$$
>  <SMILES_STR>
CN(C)c1ccc(-c2cc(-c3c[nH]c4ccccc34)nc(N)c2C#N)cc1

>  <LABEL_CLASS>
true

$$$$
>  <SMILES_STR>
CC1=C(C)C(=O)C(Nc2ccc3c(c2)OCCO3)=C(Br)C1=O

>  <LABEL_CLASS>
false

$$$$

---

System: SF-295 CNS
Assay: NCI-60 one-dose screen, 48 h (100 = growth as untreated, 0 = no growth, -100 = all killed)
Conditions: 10 µM unless noted
Protocol: Cells are grown in 96 well plates and exposed to the test compound for 48 hours. Compounds are tested at a single concentration, which is 10^-5 M for most compounds. The reported endpoint is percent growth (GI% or GIPRCNT), where numbers from 0 - 100% represent growth inhibition, and numbers from -100% - 0 represent cell death. For example, a value of 40 represents 60% growth inhibition. A value of 0 means no net growth occurred over the course of the experiment. […]
Compounds without any hit were thinned out: in the full panel of roughly 83,000, 20% have a hit.
MEASURED_PARAMETER: growth (%)

>  <COMPOUND>
Nc1ncc(-c2ccc3ncnc(NCc4ccccc4)c3c2)cn1

>  <MEASURED>
47.4

$$$$
>  <COMPOUND>
CC(Nc1c(C#N)cnc2ccc(-c3cncc(O)c3)cc12)c1ccccc1 (stereo not given)

>  <MEASURED>
-13

$$$$
>  <COMPOUND>
COc1cccc(N2CCN(C3=C(Cl)C(=O)c4ncccc4C3=O)CC2)c1

>  <MEASURED>
110

$$$$
>  <COMPOUND>
N#CC1=C2NCCCNc3oc(nc3C#N)Cc3ccccc3CC(=N1)O2

>  <MEASURED>
108

$$$$
>  <COMPOUND>
CN(C)S(=O)(=O)c1ccc(-c2nc(C(Cl)Cl)nc3cc(-c4ccc(F)cc4)nn23)cc1

>  <MEASURED>
21.8

$$$$

---

Measured growth values are reported for all entries that follow.
system: MALME-3M melanoma; assay: NCI-60 one-dose screen, 48 h (100 = growth as untreated, 0 = no growth, -100 = all killed); conditions: 10 µM unless noted
This is part of a sample that, as a whole, favours compounds with a hit. Of some 83,000 tested, about 20% had one in any assay.

>  <COMPOUND>
CC1=C(SCC(=O)OCCCCCC(C)C)C(=O)c2ccccc2C1=O

>  <growth, %>
116

$$$$
>  <COMPOUND>
Cn1cc(-c2cc3ncnc(Nc4ccc(CC(=O)Nc5nc(C(C)(C)C)cs5)cc4)c3s2)cn1

>  <growth, %>
55.9

$$$$
>  <COMPOUND>
C#CCOc1ccc(-c2csc(NC(=O)C=C)n2)cc1NS(=O)(=O)c1cccc2c(N(C)C)cccc12

>  <growth, %>
62.5

$$$$
>  <COMPOUND>
CCOC(=O)c1c(NC(=O)c2cccc(C(F)(F)F)c2)sc2c1CCC(=O)C2

>  <growth, %>
58.3

$$$$
>  <COMPOUND>
COc1ccc(/C=N/NC(=O)CSc2nc(-c3cnccn3)cc(-c3cccs3)c2C#N)cc1OC

>  <growth, %>
69.1

$$$$
>  <COMPOUND>
CNC(=O)c1cc(Oc2ccc3c(c2)sc2nc(-c4ccc(N(C)C)cc4)cn23)ccn1

>  <growth, %>
57.5

$$$$
>  <COMPOUND>
COC(=O)[C@@H](Cc1c[nH]c2ccccc12)NC(=O)CCCCOc1cc(O)c2c(=O)cc(-c3ccccc3)oc2c1

>  <growth, %>
94.3

$$$$
>  <COMPOUND>
COc1ccc(C2C(C#N)=C(/N=C/c3ccc(Cl)cc3)Oc3c2sc2c(C)cccc32)cc1 (centres undefined)

>  <growth, %>
50.2

$$$$
>  <COMPOUND>
O=S(=O)(Oc1ccc(-c2cn3ccsc3n2)cc1)c1cccc(C(F)(F)F)c1

>  <growth, %>
91.3

$$$$

---

system: NCI-H322M lung; experiment: NCI-60 one-dose screen, 48 h (100 = growth as untreated, 0 = no growth, -100 = all killed); details: 10 µM unless noted
Compounds without any hit were thinned out: in the full panel of roughly 83,000, 20% have a hit.
One threshold, 90%, splits the recorded growth values: lower ones are MET, equal or higher ones are NOT MET.

>  <MOLECULE>
CNC(=O)c1cc(-c2ccc(NC(=S)Nc3cccc(C(F)(F)F)c3)cc2)nc2cccnc12

>  <LABEL_CLASS>
NOT MET

$$$$
>  <MOLECULE>
CC(Nc1ncnc2ccc(-c3cnc(N)nc3)cc12)c1ccccc1 (stereo not given)

>  <LABEL_CLASS>
MET

$$$$
>  <MOLECULE>
Clc1ccc2[nH]cc(-c3nn4cc(-c5cccnc5)nc4s3)c2c1

>  <LABEL_CLASS>
NOT MET

$$$$
>  <MOLECULE>
CCc1cc2c(cc1Cl)nc1c(=O)[nH]c(=O)nc-1n2CCOCC(C)(C)C

>  <LABEL_CLASS>
MET

$$$$
>  <MOLECULE>
CCOC(=O)c1ccc(NC2=CC(=O)C(C)=C(C)C2=O)cc1

>  <LABEL_CLASS>
NOT MET

$$$$
>  <MOLECULE>
O=C(COc1ccc(/C=C2\C(=O)Nc3ccc(Cl)cc32)cc1)Nc1ccc(Cl)cc1

>  <LABEL_CLASS>
MET

$$$$
>  <MOLECULE>
CCOC(=O)c1cccc(NC2=C(Cl)C(=O)C(C)=C(C)C2=O)c1

>  <LABEL_CLASS>
NOT MET

$$$$
>  <MOLECULE>
O=C(CCCCCCN1CC(=O)N2[C@@H](c3ccc(Cl)s3)c3[nH]c4ccccc4c3C[C@H]2C1=O)NO

>  <LABEL_CLASS>
MET

$$$$
>  <MOLECULE>
C#CCN(C)CCCOc1ccc(NC(=O)CCCCCCC(=O)NO)cc1Cl

>  <LABEL_CLASS>
MET

$$$$
>  <MOLECULE>
Cn1cc(-c2nn3cc(-c4ccncc4)nc3s2)c2cc(Br)ccc21

>  <LABEL_CLASS>
MET

$$$$
>  <MOLECULE>
Cc1ccc2c(n1)C(=O)C(Cl)=C(Nc1cccc(C(=O)OC(C)(C)C)c1)C2=O

>  <LABEL_CLASS>
NOT MET

$$$$
>  <MOLECULE>
O=C1[C@H]2Cc3c([nH]c4ccccc34)[C@H](c3ccc(Br)cc3)N2C(=O)CN1C1CCN(CC2CCCCC2)CC1

>  <LABEL_CLASS>
NOT MET

$$$$
>  <MOLECULE>
NC(=O)n1c(=O)n(-c2cccc(C(F)(F)F)c2)c(=O)c2cc(-c3ccc(F)cc3F)ccc21

>  <LABEL_CLASS>
MET

$$$$
>  <MOLECULE>
COc1ccc(C(=NNS(=O)(=O)c2ccc(C)cc2)c2ccccc2)cc1OC

>  <LABEL_CLASS>
NOT MET

$$$$
>  <MOLECULE>
COc1cc(C(C)=C(c2ccc(OCCN(C)C)cc2)c2ccc(OCCN(C)C)cc2)ccc1F

>  <LABEL_CLASS>
NOT MET

$$$$
>  <MOLECULE>
CCCCCCN1C=C/C(=C\C(=O)n2ccc3ccccc32)c2ccccc21

>  <LABEL_CLASS>
NOT MET

$$$$
